Where do these numbers come from? They come from paper PMC10303271.

Molecular target: D5 (Homo sapiens)
Construct: purchased NIMH Psychoactive Drug Screening Program (PDSP)
Sequence (P21918 whole entry): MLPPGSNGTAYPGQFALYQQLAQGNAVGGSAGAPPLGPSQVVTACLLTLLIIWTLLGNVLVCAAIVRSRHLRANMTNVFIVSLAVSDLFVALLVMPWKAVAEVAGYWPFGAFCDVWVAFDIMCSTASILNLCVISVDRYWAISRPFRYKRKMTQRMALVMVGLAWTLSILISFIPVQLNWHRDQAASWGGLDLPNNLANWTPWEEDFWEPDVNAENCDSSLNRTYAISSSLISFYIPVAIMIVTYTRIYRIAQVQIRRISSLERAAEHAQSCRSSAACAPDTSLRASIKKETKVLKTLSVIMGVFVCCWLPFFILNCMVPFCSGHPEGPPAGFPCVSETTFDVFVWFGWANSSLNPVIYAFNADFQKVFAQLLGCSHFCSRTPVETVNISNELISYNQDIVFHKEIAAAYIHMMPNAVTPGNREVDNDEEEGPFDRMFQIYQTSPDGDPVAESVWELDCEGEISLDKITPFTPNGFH
Experiment: PDSP primary binding D5
Conditions: 1.5 h; primary binding, 10,000 nM; last figure of the line = mean of the 4 before it; read-out: D5, PDSP raw data, mean

# CHEMICAL STRING, inhibition at 10 µM / %
records = [
    ("C[C@H]1N=C(c2ccccc2F)c2cc(Cl)ccc2-n2cnc(-c3nc(C4CC4)no3)c21", 14.1),
    ("CC(C)c1noc(-c2ncn3c2[C@@H](C)N=C(c2ccccc2F)c2cc(Cl)ccc2-3)n1", 17.1),
    ("C[C@H]1N=C(c2ccccc2F)c2cc(-c3ccccc3)ccc2-n2cnc(C(=O)N(C)C)c21", 1.22),
    ("C#Cc1ccc2c(c1)C(c1ccccc1Cl)=N[C@H](C)c1c(C(=O)N(C)CC)ncn1-2", -17.2),
    ("CCc1noc(-c2ncn3c2CN=C(c2ccccc2F)c2cc(C4CC4)ccc2-3)n1", 9.06),
    ("C#Cc1ccc2c(c1)C(c1ccccn1)=N[C@@H](C)c1c(C(=O)N(C)C)ncn1-2", -11.1),
    ("CCc1noc(-c2ncn3c2[C@@H](C)N=C(c2ccccc2F)c2cc(Cl)ccc2-3)n1", 3.16),
    ("C#Cc1ccc2c(c1)C(c1ccccc1F)=N[C@H](C)c1c(C(=S)N(C)C)ncn1-2", 1.22),
    ("C#Cc1ccc2c(c1)C(c1ccccc1Cl)=N[C@H](C)c1c(C(=O)NC)ncn1-2", 12.2),
    ("C#Cc1ccc2c(c1)C(c1ccccn1)=N[C@@H](C)c1c(C(=O)NC)ncn1-2", -16.1),
    ("CCc1noc(-c2ncn3c2[C@@H](C)N=C(c2ccccc2F)c2cc(C4CC4)ccc2-3)n1", 51.2),
    ("CCc1noc(-c2ncn3c2[C@@H](C)N=C(c2ccccc2F)c2cc(-c4ccccc4)ccc2-3)n1", 23.6),
]
